For each of the sequences below, state its protease stability score.
Test: protease stability score; higher = more stable; yeast display proteolysis, trypsin and chymotrypsin;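 also: relative to predicted unfolded state with 0 unfolded-like and 1 meaning tenfold more protease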

Item under review: DHDDEESKHWLEFYLEIVQTGDEDSHKRLADPNTRLHIDGQVMHGREFMTMWFRHLVSKFKNARVEIRLRDTRKINGRVELDVELIFRVGDKEERREVQIFADKVDGRWHIKEFVVH . Reported protease stability score?
2.22

Try the sequence EESEKSAEDATRLIIHMLETGDERLMKHLMDPDVRIEIGEYISIGRENVEELFREWRSKLGIKHIEVKRVRIEVQGNKVHIEMDTRLIVGDKEEETILRVDVVKINGRWYIKSMRLEIR
1.95

Now the same for SEWEEELERLLREIIHSILTGDEKRLRELMDPNAKFHILVNGVEIDLMGMEHHSHWFREWLKHARINTVHIRHYDVVGEKARSDTELDMEIDGRRIRTRTELILVVIDGRVHSLEIRIK
2.02

* * *

Assay: protease stability score; higher = more stable; yeast display proteolysis, trypsin and chymotrypsin;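 also: relative to predicted unfolded state with 0 unfolded-like and 1 meaning tenfold more protease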
Binned protease stability score; ranges: class 1: < 1; class 2: ≥ 1 and < 2; class 3: ≥ 2

Place this sequence in its band: SELEEYLTYLSKLFVHALITGNEDKYTEEFDPRTRFEMLINGRRIEYHGRESVREFLRHFLEEWRIHHIDTTEIEFIGDKARIHGEQEVHFNGRNITTKVRIDILFYNGKMRDIRIEIE
class 3

What do you get for SKDEEDAEEFFEKWLRYSRTGDEKSMEELMDPNTKIDFNGKEIHGREEVLRFLIELRVHHIEIKRISSINGKLHIDGRFDIIYGDKRIDTRTVLEIDKINGRWHLHTVRFV ?
class 3

Thanks! And SEHEKFSEKYFQIWVRAVRTGDEDTLRELIDPDDRLDVNGQNFHGWEQVNEHLLHFIRKIKNVRIEVHLEHHEVQGDKIHLDMTLHLNVDGRETRHKTEIIARKIDGRWVFTEFRIK ?
class 3

Same question, SEEHKEAREFLEEWITFIHTGDEDMIHKMLDPDTRSNINGRDLHGRELAVKIIIEEVRRYRGVQIRMEREHVVDGRMESTIRVHQGEKEFEVIVHFVKINGRWRLKWIEIR this time
class 2

Another sequence to look at: DDYEKDDKHFLNVFLHMLETGDWEKLEKLADPRVRQDVDGVEYHGMEEAVEVWHRLRHKFKGLTLREVTIHDIRTIDGKIDLDVEFHFDFNGREISRRVIIIVDKINGRWELKSMKEK
class 1

Input RELEESSKFFLKLIIEAFLTGDERTNSELADPNVRIHIGEFHYHGREEFSKLMEELVKRVKNATVINDIDHIEVQGEKIKMDGRLILIYNGRIFETRTSLIVVKIDGRWLIESVHVK
class 2

Also, DEDREHVLKVTRLIWRAWMTGDFERISHLIDPNAKIDINGVDLHGREKLRHHLERVDYMHLESEHERRIDIIGDFVRIEFRFTVILIVNGQEVRDTTHVEIRARIVNGRLTEVYVHEH please.
class 2

Param item: SREEEDAKLALDLLIEALKTGDEHEIKELLDPTTRMEVGDKELVGRENISKHVSDMVHRIDHIEVRLHDMTIINGVVHLDTRLILHFNGRTHTQETRVIVWKFNGRWIITHIHVK
class 2

Same question, DKKQVHDVARTLVQYYVSGNSERVKQLGKEDVELHAGDRTYHGVDQMAKVVEQFKKYGVELEVKDVKVDGNRVTARVQFHKAGTTWEFKVDVQADGGKVDQVRVNVTEEAIKHIQHG this time
class 1

Now consider SELEHLTEEVAERVLRVLLTGNEHWLDRLLDPHVRLHVNGQDFHGRENVKRWMHELGVDHREIEIEDYRSINGVFIVWGHIRIHQGEKEIKFKSEHIFVVFNGKMQSMEIRIL and answer again.
class 2

Proceed to SEEEHVAKKLSDLILHAWRTGDEDQLSRLMDPHVRMIIGDKHLHGREEVSRWLHDWRRQVDHVEFHVKRFHVQGNKYTNDGHFVVHQGDKETRTDVEIILIVVDGKIHEIRIIIR
class 3

* * *

Would you kindly list protease stability score for each of these sequences?
Test: protease stability score; higher = more stable; yeast display proteolysis, trypsin and chymotrypsin;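 also: relative to predicted unfolded state with 0 unfolded-like and 1 meaning tenfold more protease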
The reply should be a number, written without any unit.

Param item = DEEEKMDELLIKIWLKVNETGDEDTFSKLLDPDAKVIVGDKVLHGREEIEELMRQLRVDRIHVRRHKAVNGQIHQDWELRGTVNGREIRTETRVHTIKVNGQWVIHRLKIE ; retrieve measured protease stability score.
1.49

// next record DEEDEASHLALRLLEFTMKTGDERVSKENFDPNVRIEINGVDLHGWEHLTRILREIRIHDVRIEHSEVQGEKLILHGRMHWRVNGRDIEVETQVHAIKVDGKWRTKRIHFD
1.49

Now the same for DELEEYLKRLAKEILELMQTGDEDRWMKLADPNVRIDVNGVELHGRETWVERMEDILREIRSEYRIRHVHSQGNWARVDGELDIKVNGRIIRHKTEFIVVTVNGRIREEKFHIR
0.335

# repeat for SEEEKSAKIAVDLLLKSQLTGDEQTISELLDPNVRLDVNGREYHGREEYKKWFKHMVERADHMEIRLRHVHFYDGQVHVIGILIIRVNGKELRWEQILVVDKIDGRWLLSEFNFH
2.63

Same lookup for DEDEQHSELLFRLLYHARKTGDWRKLQELADPHTRFQIGEWDLIGWKMYLEYVRNFRNVHLEFHIKDFRLYGEKTHSNVETIIRIGDKTLNIETELRVDVVNGRIKFIEVHER , please.
0.994

Next up: TERDEHSRKMAHALVENFRTGDFETLHDLFDPRYLVILYIDGVDIRLHGREDFLRELKLINDRLGVDRVNLSVKHMEIQGDKVIMHFEEHQGDKTRRSEIRLEIINGRLRTSEWWIH
0.788

Request: SEEERRDEHLMRLWVHLLLTGDEDTLKKLADPDARLVVGDKTFHGMEEVSRIMHEFLRRLGIKHFHDLDFKHVRHINGVAHFNGRLHGIQGEFERNTNIEFVVVVVDGRIKSSEIHWH
1.41

Same thing, different sequence: TEEDHKAFTMVELFLNALTTGDERTLEKLVDPNVRVNIDGRDVHGMSILIRWREHLRFEFREVNNKRSELQGEKLHVDSEVDRHIRIGDKEDREHIRIHFHLLKINGRWFIEEVRML
1.36

Repeat for the following sequence: DELERRSRDLVELFITALKTGDEDLFSRLIDPNALTWVGDKEQVGWHTDVKMFEDLGLTNFDFHLRSKEIRIIDGKLHTIINGSININGKETDTEIRITISKINGRWQLSSVFVRLH
0.786

Input DEDDEVAIKFLEDIIQVWETGDEEEFSRLFDPDYRVHIGDKTLHGREIVVQEILEHLRRLGIERFEVRIHIRHAHFYNGRLDLNGELVIIINGKELRRHTHFVVLKVNGRWLLEREEVK
1.76

Param item: DEYWHHMKKSFEDLHDARHTGDERFVMEMLDPNVRFDINGVEFIGREDWRRHLQELGVDHEEIILHDYHIFNGRVELDVRTVHHIGDYELRRDEHMDLRKVNGRWHIKEIRVR
0.209

* * *

Please go through the items and note down their protease stability score.
Assay: protease stability score; higher = more stable; yeast display proteolysis, trypsin and chymotrypsin;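 also: relative to predicted unfolded state with 0 unfolded-like and 1 meaning tenfold more protease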
Form field (numeric): enter value without unit.

Consider the sequence KHEEDEWKRMIDIVLHMLKTGNFELLERLADPHARSHIDGVRIHGREKFVEILFEVWHFYKNLTISINHIDVFNGVIVIHGRLDINGRQVEVHIVVTKINGKWFLESHSEIFH and give its measured protease stability score.
0.572

Then this sequence: DDHETEMIHWAELFAELIRTGDEEKLDKLLDPNVKIDINGRKFHGRESMRFALKHLRIHHVEIDDLKVQGDKSFWIGFVEGQIDGQRDRRHSTIELLLVNGRIKSVQLEFR
1.61

SEDEEIVHLAIEMYLESIRTGDWKLWEKLIDPDVRLEVNGVEFHGMEEFLKFEREINKRVDHVEVRLRDTRLVNGQVNLNTELINRYDGRTIITETTYVAIKVDGKWYIHEYRIE , same question.
1.14

Let us now turn to SELERLIMEMLHLLIELWLTGDEETLSKLIDPNTRLIVIQGDKHIIVHGRELVLHIMRRIREEIRFEDSRIRSMDAQGNKASINEEMHFRIGDKEVRFEREVEVWVIDGKLHSLVIRIK
0.871

Input HQDDDELKHFLELFIEQHETGDEHRLRKMADPRTRVEINGQEIHGMDQLVRHWLEFRKRMGVDHTHVILEHFHFQGDKVSARLRLIFIVGDKTFETDMNVIVVKVDGKWLIHEVSTR
1.22

Repeat with LEEEEEAKTMIEHHFDNFRTGDEDLIHKLADPHVRVLYNGKILHGREKLVEMIHKLVEKMGVDHLEYRHRDMKIWDGQVEVHGERIIRQGDKTYRFDVILFVLKVDGRWVIKEVRVQ
1.47

Next sequence: NEHEKLLKESLEELRHALRTGDEESLERLVDPHARMVVNGVTYHGREYLHRFFHRIDYFHNEHLDVKEVHVQGDKIHFDVVTHGVFHVGDKKIKDTIRLSSIAEKIDGRWFNREIFHH
0.412

Try this sequence next: REDEDAVREWALKFLESSLTGDEHFLKNLMDPHARLVIGDKHFHGREEVVRTWREFLTKFKNVRHDLHDINIQGDKVDVVENLVFDGVRTRTRITMRKVDGRWVITDIVIE
2.08

Queued: TEEHDEAHEVLKIFLEIHETGDEDDMKRLADPHARLNIGDKEYHGWKHFIEWLHKIKNVTSEIHHVHVYNGKVKTEVDLHVNGQDVKIILIMEKINGRWILQSVEVR
1.29

Would you mind doing DEEEEKAKHVLELWSRAMLTGDEDEYKKLADPHTRLIVDGQTFHGWENFTKSHNQIKNIKIDDVHVENHHIQGNKMFVDLRFEMEFNGRILHKETHLFIEKIDGKWLIRTQEIH as well?
0.767

Field entry: DESEEKAREFLEILVRDVRTGDEESAVRLLDPNVRIEQGDKELHGWEVYIHWAKHIRMRSVHLRTMEVQGDKVILRGDERQEIDGVESVRDVIVYVRKINGRWVMTSIEVL
2.15

And what about the sequence SEEDEMAEEMMRWFLEILETGNEELFNHYADPNVIDIVGDKRVHGMDRFSELHHIFLRHWRIHRRRENTIETYNGRAHIDGEIEGKVNGREKNIRVEIKLNVVNGVIKKVEVTYN ?
0.379

Do the same for DEDERVLEEALRLWLHWVATGNETKLMEMLDPNVRLDIGDKHTHGREKFHEFMKHHKELWGVTRFHLELKRYSIQGDKVEIDIEVDINGRHFDVHIRILKIDGKWRLEQVRIN please
1.51

Another: DEDERLLKELLESLIKSHRTGDWEHLRENADPRTRLEIGDKEIIGMEKVTHFWERERKRADHEHIEIHDMKIYDGVAHVDTRLHFHFNGVDITLEFRLIMLKVNGRWILKSEHLK
0.133

Try SEDEHEMRLALEKEIKDWHTGDEDSLRELADPDVRLTVNGKRKHGWEILDVLLKHLRVRSVEIKHLRLQGDKAEMDLRMDGEVGDKRINLITHVIMYKVDGKWIIEEIVVK next.
1.43

Let us now turn to DEEEKIIEHVLRLLAEALSTGDEDTLDKLVDPNARVMIDGVDIHGMESMTEWLKHLRIERVHVELRDYREFNGKIHVDGVLHVDRRIGDKREHVSSKTTFIFTKVDGRWKVESIKIK
2.42

Same question, DENEDRIRHLLELHFHALETGDEKKTHDLFDPNTRVEVGDKTLHGRELVSKHVAEDLIKIKGLTVRIRDWNIVGDKVVVDSRVEFNGVRVETILVALKVDGRWLVKSIHIH this time
0.42

Same question, SEEDRLLEELLKLYLHLEATGNEDRFAELVDPDARMDFNGREHHGREEIRHHMVKHWKDLGVKHLHIDRFRYFNGVLDVRGHLKVNGREKDVVWILEIIDGRIHEIRHHLH this time
1.28

Try the sequence DEDEELAKKAVEEFFTAWETGNEERLEELMDPNVRSHINGVDLHGMERTSEYIRRLGHTKVETYLRRVRVFENRVEVDGDIIVDGRKHKFHLDMRKINGRWFIHRVSVK
2.42

Now consider DEEDRYMKELLEELLKDFETGNWDRLISLLDPHMRIQAENVTLHGRETTSRWLQEITSRVKGLRLHIESEEIQGDKAIIDGINNVNGREIRTILFSVKVDGRWLIKSIIIL .
1.28

What about DDLERLVRELLDLWKRALKTGDEDVLSKMFDPDVRLTINGQVSVGREDVLRLWQEWRVDRMEERDVTVQGDKIHMDGHSHVEYDGRRIEVRHEIILVIVNGRAKSQEVRIR ?
1.62

Please give the result for SHVEEEAEHFWEELVRAYKTGDENLLKRLADPNVKVDINGRELIGREEFARVVSEERRQMRSHVELHDIRKDGDKMHINTILRIHIGDKEVSRTTHLHSIKVDGRWRLETWHIV too.
1.06
